Ki: recorded values
Assay System: IMP-1 (Serratia marcescens)
Sequence (P52699 19-246, looked up, species assumed): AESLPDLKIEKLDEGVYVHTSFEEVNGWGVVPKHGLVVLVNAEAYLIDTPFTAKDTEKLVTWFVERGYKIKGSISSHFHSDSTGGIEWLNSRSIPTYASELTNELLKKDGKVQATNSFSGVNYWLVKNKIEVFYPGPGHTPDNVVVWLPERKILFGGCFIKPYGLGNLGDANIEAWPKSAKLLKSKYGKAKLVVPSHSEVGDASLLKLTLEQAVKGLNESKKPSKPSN
Assay Text: In vitro enzyme inhibition assay, purified IMP-1 (imipenem hydrolysis, UV 299 nm)
Format: biochemical
Stated Conditions: mean Ki from multiple experiments; imipenem 300 μM; Cheng-Prusoff from IC50; read-out: Ki IMP-1

Check out these entries, answers already filled in.
CN(C)C(=N)CC(=O)Nc1ccc(S(=O)(=O)Nc2scnc2C(=O)O)cc1F	500 to 1000 nM
N=C(N)NOCC(=O)Nc1ccc(S(=O)(=O)Nc2scnc2C(=O)O)cc1F	1000 to 10000 nM
O=C(CNC1=NCCN1)Nc1c(F)cc(S(=O)(=O)Nc2scnc2C(=O)O)cc1F	1000 to 10000 nM

What does the data say about its Ki? Entry: "N=C(N)NCC(=O)Nc1ncc(S(=O)(=O)Nc2scnc2C(=O)O)s1"
1000 to 10000 nM

* * *

pKi: recorded values
Assay System: IMP-1 (Serratia marcescens)
Assay Text: In vitro enzyme inhibition assay, purified IMP-1 (imipenem hydrolysis, UV 299 nm)
Assay type: biochemical
Stated Conditions: comparative study bands; read-out: Ki IMP-1 (comparative study)
pKi: −log10 of the molar value.

Check out these entries, answers already filled in.
N=C(N)NNC(=O)Nc1ccc(S(=O)(=O)Nc2scnc2C(=O)O)cc1F [Example 29]	5.30 to 6.22
NCC(=O)Nc1c(F)cc(S(=O)(=O)Nc2scnc2C(=O)O)cc1F [Comp. B, reference compound]	5.30 to 6.22

What does the data say about its pKi? Entry: N=C(N)NCC(=O)Nc1ncc(S(=O)(=O)Nc2scnc2C(=O)O)cc1F [Example 3]
5.30 to 6.22

What does the data say about its pKi? Entry: N=C(N)NCC(=O)Nc1ccc(S(=O)(=O)Nc2scnc2C(=O)O)cc1Cl [Example 17]
> 6.82

* * *

pKi: recorded values
Assay System: VIM-1 (Pseudomonas aeruginosa)
Assay Text: In vitro enzyme inhibition assay, purified VIM-1 (imipenem hydrolysis, UV 299 nm)
Type: biochemical
Stated Conditions: mean Ki from multiple experiments; imipenem 300 μM; Cheng-Prusoff from IC50; read-out: Ki VIM-1
pKi: −log10 of the molar value.

N=C(N)CCC(=O)Nc1ccc(S(=O)(=O)Nc2scnc2C(=O)O)cc1F	> 6.70

What does the data say about its pKi? Entry: "N=C(N)NNCC(=O)Nc1ccc(S(=O)(=O)Nc2scnc2C(=O)O)cc1F"
6.30 to 6.70

* * *

Assay Text: Plasma stability of test compounds in human plasma
Format: in vitro ADME
Stated Conditions: after 2 hours; 1 μM, 37° C.
Endpoint Name: Stability in human plasma, % remaining (% remaining after 2 hours)
Kindly answer with a numeric value in % remaining after 2 hours, unit omitted.

What does the data say about its Stability in human plasma, % remaining? Entry: COc1cc(S(=O)(=O)Nc2scnc2C(=O)O)ccc1NC(=O)CN [Comp. E, reference compound]
29

What does the data say about its Stability in human plasma, % remaining? Entry: N=C(N)NCC(=O)Nc1c(F)cc(S(=O)(=O)Nc2scnc2C(=O)O)cc1F [Example 2]
73

What does the data say about its Stability in human plasma, % remaining? Entry: COc1cc(S(=O)(=O)Nc2scnc2C(=O)O)ccc1NC(=O)CNC(=N)N [Example 16]
89

What does the data say about its Stability in human plasma, % remaining? Entry: NCC(=O)Nc1ccc(S(=O)(=O)Nc2scnc2C(=O)O)cc1F [Comp. A, reference compound]
29
